# Test system: T24 cell line
# TEST_PROTOCOL: Cytotoxicity MTS assay, T24 cell line;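 also: blank control wells received 0.025% DMSO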
# Format: cell-based
# MEASUREMENT_PARAMETERS: T24 cell line, 10μM, third assay
OD490 Well 1: recorded values
When you answer, write just the number.

CCOC(=O)C1=C(C)NC(=S)NC1c1cccc(O)c1 (stereo not shown) [Monastrol, monastrol, reference compound]	1.7425
CCOc1ccccc1C1NC(=S)NC(C)=C1C(=O)Nc1ccc(Cl)cc1 (stereo not shown)	1.6523

Input: Fill blank: measured OD490 Well 1 of the compound CCOC(=O)c1c(C2NC(=O)NC(C)=C2C(=O)Nc2ccccc2OC)[nH]c(C(=O)OC)c1C (stereo not shown) [D1] is ____.
Output: 1.7768

Input: Fill blank: measured OD490 Well 1 of the compound CCOC(=O)c1[nH]c(C2NC(=O)NC(C)=C2C(=O)Nc2ccccc2C)c(C(=O)OC)c1C (stereo not shown) is ____.
Output: 1.6647

Provenance of the data: paper PMC8037182
